compounds and their reported AC50
- TARGET_DESC: Voltage-dependent L-type calcium channel subunit alpha-1C (Rattus norvegicus, UniProt P22002); further: assay procedure not described here
- Sequence (P22002 whole entry): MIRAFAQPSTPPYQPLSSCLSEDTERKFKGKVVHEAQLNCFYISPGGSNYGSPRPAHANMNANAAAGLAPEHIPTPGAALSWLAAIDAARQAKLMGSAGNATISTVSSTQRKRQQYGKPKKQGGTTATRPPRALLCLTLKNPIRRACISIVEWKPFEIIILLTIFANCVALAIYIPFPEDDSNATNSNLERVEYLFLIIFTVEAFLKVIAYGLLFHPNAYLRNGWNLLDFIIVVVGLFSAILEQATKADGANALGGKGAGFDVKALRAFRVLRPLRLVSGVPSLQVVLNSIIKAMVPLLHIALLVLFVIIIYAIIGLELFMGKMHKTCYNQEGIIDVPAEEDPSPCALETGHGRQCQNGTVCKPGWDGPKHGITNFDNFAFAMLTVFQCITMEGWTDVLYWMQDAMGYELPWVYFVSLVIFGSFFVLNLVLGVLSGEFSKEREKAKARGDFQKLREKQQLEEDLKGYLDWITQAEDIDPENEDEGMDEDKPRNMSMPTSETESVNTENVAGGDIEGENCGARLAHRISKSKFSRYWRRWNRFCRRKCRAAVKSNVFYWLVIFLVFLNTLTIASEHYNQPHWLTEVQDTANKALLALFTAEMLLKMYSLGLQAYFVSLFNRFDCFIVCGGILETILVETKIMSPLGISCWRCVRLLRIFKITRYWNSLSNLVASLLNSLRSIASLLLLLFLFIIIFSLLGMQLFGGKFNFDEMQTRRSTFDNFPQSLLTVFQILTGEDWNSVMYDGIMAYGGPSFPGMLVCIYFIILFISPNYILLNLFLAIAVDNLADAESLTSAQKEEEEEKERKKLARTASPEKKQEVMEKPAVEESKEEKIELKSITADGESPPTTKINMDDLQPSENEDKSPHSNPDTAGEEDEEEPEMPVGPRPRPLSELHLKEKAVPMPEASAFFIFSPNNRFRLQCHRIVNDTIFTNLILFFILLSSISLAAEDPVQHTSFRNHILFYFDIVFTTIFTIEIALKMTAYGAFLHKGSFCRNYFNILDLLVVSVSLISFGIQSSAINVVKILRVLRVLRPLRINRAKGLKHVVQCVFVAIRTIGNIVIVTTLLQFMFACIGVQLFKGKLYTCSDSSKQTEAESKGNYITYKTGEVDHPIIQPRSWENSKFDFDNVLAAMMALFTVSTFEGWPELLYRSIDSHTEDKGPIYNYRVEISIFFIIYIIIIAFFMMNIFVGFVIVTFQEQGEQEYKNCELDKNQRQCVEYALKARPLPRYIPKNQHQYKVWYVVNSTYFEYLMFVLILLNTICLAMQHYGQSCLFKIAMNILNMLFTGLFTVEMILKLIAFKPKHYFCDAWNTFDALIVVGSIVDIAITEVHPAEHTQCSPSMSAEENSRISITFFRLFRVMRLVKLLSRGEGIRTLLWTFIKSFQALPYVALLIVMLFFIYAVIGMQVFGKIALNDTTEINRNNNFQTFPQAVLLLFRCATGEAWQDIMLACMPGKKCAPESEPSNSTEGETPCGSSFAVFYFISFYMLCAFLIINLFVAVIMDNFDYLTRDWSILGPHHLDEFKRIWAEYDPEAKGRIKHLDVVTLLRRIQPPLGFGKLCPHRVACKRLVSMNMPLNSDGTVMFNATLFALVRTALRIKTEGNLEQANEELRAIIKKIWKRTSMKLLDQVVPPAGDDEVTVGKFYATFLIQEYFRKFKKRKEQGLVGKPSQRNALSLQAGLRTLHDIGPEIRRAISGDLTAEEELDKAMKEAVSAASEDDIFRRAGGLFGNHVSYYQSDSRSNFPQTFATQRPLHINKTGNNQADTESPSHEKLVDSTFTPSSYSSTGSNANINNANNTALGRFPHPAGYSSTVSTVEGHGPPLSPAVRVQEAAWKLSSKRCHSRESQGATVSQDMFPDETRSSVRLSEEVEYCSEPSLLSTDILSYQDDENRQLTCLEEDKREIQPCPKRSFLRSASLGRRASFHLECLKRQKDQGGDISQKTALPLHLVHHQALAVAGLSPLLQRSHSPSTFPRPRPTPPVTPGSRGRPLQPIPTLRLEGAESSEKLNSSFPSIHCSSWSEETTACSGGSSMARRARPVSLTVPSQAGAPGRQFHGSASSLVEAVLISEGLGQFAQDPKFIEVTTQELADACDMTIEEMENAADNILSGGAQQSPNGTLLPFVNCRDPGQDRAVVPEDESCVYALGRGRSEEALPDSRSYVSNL
- Type: functional

The examples below pair each entry with its known result.
1. O=C1CN=C(c2ccccc2Cl)c2cc([N+](=O)[O-])ccc2N1	> 10 µM
2. CCCO[C@H]1[C@@H]([C@@H](COCc2ccc(Cl)cc2)OCc2ccc(Cl)cc2)OC(OCC)[C@@H]1O (some centres undefined) [CLOBENOSIDE]	> 30 µM

[ask] Item CCC1(CC)C(=O)NC(=O)N(C)C1=O has what recorded AC50?
[reply] > 10 µM

[ask] Item O=C(O[C@H]1C[N+]2(CCCOc3ccccc3)CCC1CC2)C(O)(c1cccs1)c1cccs1 [ACLIDINIUM BROMIDE] has what recorded AC50?
[reply] > 10 µM
